Target: T1, IL-2Rβ/γ-Fc heterodimer (IL-2Rβ-Fc-hole with IL-2Rγ-Fc-knob)
T1 construct: Co-expressed in HEK293 cells and purified with Protein A and Superdex 200
T1 sequence (chain, as listed by the source limits assumed, chain 1 of 2): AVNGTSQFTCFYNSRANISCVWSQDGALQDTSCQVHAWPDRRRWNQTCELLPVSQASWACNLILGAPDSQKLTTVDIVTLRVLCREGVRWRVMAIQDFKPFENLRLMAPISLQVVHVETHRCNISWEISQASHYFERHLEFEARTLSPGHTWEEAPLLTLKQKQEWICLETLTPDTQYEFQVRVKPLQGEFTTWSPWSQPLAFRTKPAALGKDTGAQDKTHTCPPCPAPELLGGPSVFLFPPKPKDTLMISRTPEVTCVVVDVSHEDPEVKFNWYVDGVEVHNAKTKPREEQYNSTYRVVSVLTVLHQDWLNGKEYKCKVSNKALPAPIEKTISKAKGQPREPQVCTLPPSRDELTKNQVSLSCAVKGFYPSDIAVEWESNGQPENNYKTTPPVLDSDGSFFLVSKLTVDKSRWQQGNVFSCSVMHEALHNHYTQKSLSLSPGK
T1 sequence (chain, as listed by the source limits assumed, chain 2 of 2): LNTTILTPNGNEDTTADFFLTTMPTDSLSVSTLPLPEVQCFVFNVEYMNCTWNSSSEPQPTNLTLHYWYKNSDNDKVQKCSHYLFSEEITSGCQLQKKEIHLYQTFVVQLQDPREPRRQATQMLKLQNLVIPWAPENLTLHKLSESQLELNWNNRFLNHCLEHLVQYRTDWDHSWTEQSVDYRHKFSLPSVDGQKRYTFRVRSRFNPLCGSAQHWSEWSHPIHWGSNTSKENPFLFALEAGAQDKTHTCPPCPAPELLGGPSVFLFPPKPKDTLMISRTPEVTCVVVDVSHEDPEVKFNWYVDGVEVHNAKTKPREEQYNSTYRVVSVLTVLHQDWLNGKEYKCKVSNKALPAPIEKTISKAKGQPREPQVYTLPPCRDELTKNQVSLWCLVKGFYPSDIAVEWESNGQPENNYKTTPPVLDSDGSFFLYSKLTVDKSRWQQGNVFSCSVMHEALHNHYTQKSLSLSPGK
Assay: SPR (Biacore), IL-2Rβ/γ-Fc captured on Protein A chip, 1:1 model
property.measured: koff (s⁻¹)
Your answer should be a plain number; it is taken to be in s⁻¹.

// field: koff; key: IL-2-03 (Q11C/L132C) (ligand, The entry already carries the mutations and C125A and begins with M. Made in E. coli) MAPTSSSTKKTCLQLEHLLLDLQMILNGINNYKNPKLTRMLTFKFYMPKKATELKHLQCLEEELKPLEEVLNLAQSKNFHLRPRDLISNINVIVLELKGSETTFMCEYADETATIVEFLNRWITFAQSIISTCT ; value = 0.000135

// field: koff; key: IL-2-06 (… at positions 29-44 mutated into QSMHIDATL) (ligand, The entry already carries the replacement and C125A and begins with M. Made in E. coli) MAPTSSSTKKTQLQLEHLLLDLQMILNGIQSMHIDATLYMPKKATELKHLQCLEEELKPLEEVLNLAQSKNFHLRPRDLISNINVIVLELKGSETTFMCEYADETATIVEFLNRWITFAQSIISTLT ; value = 0.000436

// field: koff; key: IL-2-07 (F42A/Y45A) (ligand, The entry already carries the mutations and C125A and begins with M. Made in E. coli) MAPTSSSTKKTQLQLEHLLLDLQMILNGINNYKNPKLTRMLTAKFAMPKKATELKHLQCLEEELKPLEEVLNLAQSKNFHLRPRDLISNINVIVLELKGSETTFMCEYADETATIVEFLNRWITFAQSIISTLT ; value = 0.000215

// field: koff; key: IL-2-09 (Y45A/L72G) (ligand, The entry already carries the mutations and C125A and begins with M. Made in E. coli) MAPTSSSTKKTQLQLEHLLLDLQMILNGINNYKNPKLTRMLTFKFAMPKKATELKHLQCLEEELKPLEEVLNGAQSKNFHLRPRDLISNINVIVLELKGSETTFMCEYADETATIVEFLNRWITFAQSIISTLT ; value = 0.000222

Sourced from patent US20220056094A1
